Tested on: Marganella morganii 1510
Property: MIC; scope: individual compounds
Form entry: value (µg/mL) — number only.

{"columns": ["COMPOUND", "MIC / µg/mL"],
 "data": [
  ["Nc1nc(/C(=N/O)C(=O)NC2C(=O)N3C(C(=O)O)=C(SC4COCOC4)CS[C@H]23)cs1 (some centres unmarked)", 12.5]
]}

Challenge: Look at this compound and give its reported MIC. Nc1nc(/C(=N/O)C(=O)NC2C(=O)N3C(C(=O)O)=C(SCC4CCCO4)CS[C@H]23)cs1 (some centres unmarked)
Response given: 50

Challenge: Sample CO/N=C(\C(=O)NC1C(=O)N2C(C(=O)O)=C(SCC3COCO3)CS[C@H]12)c1csc(N)n1 (some centres unmarked) — what was its MIC?
Response given: 50

Challenge: Need MIC of CO/N=C(\C(=O)NC1C(=O)N2C(C(=O)O)=C(SCC3COC(C)(C)O3)CS[C@H]12)c1csc(N)n1 (some centres unmarked) , thanks.
Response given: 100

Challenge: I have this compound here, CO/N=C(\C(=O)NC1C(=O)N2C(C(=O)O)=C(SCC3CCCCO3)CS[C@H]12)c1csc(N)n1 (some centres unmarked) , and I need its recorded MIC.
Response given: 50

Challenge: # lookup: MIC of Nc1nc(/C(=N/O)C(=O)NC2C(=O)N3C(C(=O)O)=C(SCC4CCCCO4)CS[C@H]23)cs1 (some centres unmarked)
Response given: 100

Challenge: Query: MIC; subject: CO/N=C(\C(=O)NC1C(=O)N2C(C(=O)O)=C(SC3CCOCC3)CS[C@H]12)c1csc(N)n1 (some centres unmarked)
Response given: 50
